- Tested on: 8505C (Thyroid Gland Carcinoma);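 note: after 72 h of two-drug dosing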
- procedure-summary: Bliss excess, mean over the matrix (fraction); higher = more synergy
measurement-name: Bliss excess
Respond using a number only.

Query :: For the compound shown here, CN(C)CCCOc1ccc(-c2ccc3ncc4c(c3c2)n(C2CCOCC2)c(=O)n4C)cn1 [AZD0156] + C=CCn1c(=O)c2cnc(Nc3ccc(N4CCN(C)CC4)cc3)nc2n1-c1cccc(C(C)(C)O)n1 [AZD1775] (first compound max 1 µM, partner max 1 µM) , give the reported Bliss excess.
Result :: -0.0492

Query :: For the compound shown here, CC(=O)c1c(C)c2cnc(Nc3ccc(N4CCNCC4)cn3)nc2n(C2CCCC2)c1=O [Palbociclib] + Cc1c2c(nn1C)CSCc1cc(n(C)n1)CSc1cc(c3ccccc3c1)OCCCc1c(C(=O)O)n(C)c3c-2c(Cl)ccc13 [AZD5991] (first compound max 10 µM, 7x7, partner max 1 µM) , give the reported Bliss excess.
Result :: -0.175

Query :: For the compound shown here, Cc1c2c(nn1C)CSCc1cc(n(C)n1)CSc1cc(c3ccccc3c1)OCCCc1c(C(=O)O)n(C)c3c-2c(Cl)ccc13 [AZD5991] + C1CN(CCC1(C(=O)N[C@@H](CCO)C2=CC=C(C=C2)Cl)N)C3=NC=NC4=C3C=CN4 [Capivasertib] (first compound max 1 µM, 7x7, partner max 3 µM) , give the reported Bliss excess.
Result :: -0.0111

Query :: For the compound shown here, NC1(C(=O)N[C@@H](CCO)c2ccc(Cl)cc2)CCN(c2ncnc3[nH]ccc23)CC1 [Capivasertib] + Cn1cnc2c(F)c(Nc3ccc(Br)cc3Cl)c(C(=O)NOCCO)cc21 [Selumetinib] (first compound max 10 µM, 7x7, partner max 10 µM) , give the reported Bliss excess.
Result :: 0.0302

Query :: For the compound shown here, CCN(CCO)CCCOc1ccc2c(Nc3cc(CC(=O)Nc4cccc(F)c4)[nH]n3)ncnc2c1 [AZD2811] + O=C(c1cc(Cc2n[nH]c(=O)c3ccccc23)ccc1F)N1CCN(C(=O)C2CC2)CC1 [Olaparib] (first compound max 1 µM, 7x7, partner max 10 µM) , give the reported Bliss excess.
Result :: -0.0228

---

- Tested on: ESO51 (Esophageal Adenocarcinoma)
- procedure-summary: combination Emax (second highest fraction inhibited in the dose matrix, 72 h); higher = more inhibition; extreme values may be limits of the assay
Kindly state combination Emax for each of the entries shown.
Respond using a number only.

Query :: For the compound shown here, Cc1cc2ncnn2cc1Nc1ncc2c(n1)n(C1CCOCC1)c(=O)n2C [AZD7648] + C=CCn1c(=O)c2cnc(Nc3ccc(N4CCN(C)CC4)cc3)nc2n1-c1cccc(C(C)(C)O)n1 [AZD1775] (first compound max 10 µM, partner max 1 µM) , give the reported combination Emax.
Result :: 0.576

Query :: For the compound shown here, COc1cccc(OCCCN)c1-c1cc(Nc2cnc(C#N)cn2)n[nH]1 [Prexasertib] + O=C(c1cc(Cc2n[nH]c(=O)c3ccccc23)ccc1F)N1CCN(C(=O)C2CC2)CC1 [Olaparib] (first compound max 1 µM, 7x7, partner max 10 µM) , give the reported combination Emax.
Result :: 0.555

Query :: For the compound shown here, COc1nnc2ccc(N3CCC(c4ccc(OCCN5CCN(C)C(=O)[C@H]5C)cc4)CC3)nn12 [AZD5153] + Cc1c2c(nn1C)CSCc1cc(n(C)n1)CSc1cc(c3ccccc3c1)OCCCc1c(C(=O)O)n(C)c3c-2c(Cl)ccc13 [AZD5991] (first compound max 1 µM, 7x7, partner max 1 µM) , give the reported combination Emax.
Result :: 0.708

Query :: For the compound shown here, COc1nnc2ccc(N3CCC(c4ccc(OCCN5CCN(C)C(=O)[C@H]5C)cc4)CC3)nn12 [AZD5153] + C[C@@H]1COCCN1C2=NC(=NC(=C2)C3(CC3)[S@](=N)(=O)C)C4=C5C=CNC5=NC=C4 [AZD6738] (first compound max 1 µM, 7x7, partner max 10 µM) , give the reported combination Emax.
Result :: 0.823

Source: the supplement of paper PMC11061612
